Molecular target: T1, hGITR.mmh (human)
T1 construct: soluble monomeric construct; also called human (h) GITR.mmh; monomeric human GITR
T1 chain: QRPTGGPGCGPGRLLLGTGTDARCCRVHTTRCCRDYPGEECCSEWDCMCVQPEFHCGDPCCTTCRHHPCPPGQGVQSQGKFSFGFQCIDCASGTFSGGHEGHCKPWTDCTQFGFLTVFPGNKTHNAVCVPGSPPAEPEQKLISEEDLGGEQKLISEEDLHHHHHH
Test: SPR 37C, mAb capture
recorded_endpoint: koff (s⁻¹)

H4H14508P (antibody, human IgG4, V domains shown, human IgG4 (H4H)) VH: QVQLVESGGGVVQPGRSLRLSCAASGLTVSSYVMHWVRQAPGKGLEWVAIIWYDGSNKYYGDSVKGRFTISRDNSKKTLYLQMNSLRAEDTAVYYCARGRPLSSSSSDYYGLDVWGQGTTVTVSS VL: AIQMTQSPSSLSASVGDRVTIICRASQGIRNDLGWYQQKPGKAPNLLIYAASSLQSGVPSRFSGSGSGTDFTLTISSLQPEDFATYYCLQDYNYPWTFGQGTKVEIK ... 0.00935
H4H14469P (antibody, human IgG4, V domains shown, human IgG4 (H4H)) VH: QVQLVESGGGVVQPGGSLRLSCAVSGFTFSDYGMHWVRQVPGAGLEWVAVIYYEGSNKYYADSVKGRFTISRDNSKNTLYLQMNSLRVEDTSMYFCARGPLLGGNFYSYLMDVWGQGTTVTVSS VL: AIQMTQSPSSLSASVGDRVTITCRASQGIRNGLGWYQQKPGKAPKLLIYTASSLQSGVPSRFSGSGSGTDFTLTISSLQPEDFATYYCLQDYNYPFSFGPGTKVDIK ... 0.0122
H1H14523P (antibody, human IgG1, V domains shown, human IgG1 (H1H)) VH: QVQLVESGGGVVQPGRSLRLSCEASGFTFSSYGMHWVRQAPGKGLEWVAVIWYSESNKYYTDSMKGRLTISRDNSKNTLYLQMNSLRAEDTAVYYCARGGLLGKYYYYGMDVWGQGTTVTVSS VL: DIQMTQSPSSLSASVGDRVIITCRASQDIRNDLGWYQQKPGKAPKRLIYAASSLQSGVPSRFSGSGSGTEFTLTISSLQPEDFATFYCLQLNSYPYTFGQGTKLEIK ... 0.00186
H1H14486P (antibody, human IgG1, V domains shown, human IgG1 (H1H)) VH: QVQLVESGGGVVQPGRSLRLSCAASGFTFSNYGMHWVRQAPGKGLEWVAVIWYPGSNKFYTDSVEGRFTISRDNSKNTVYLQMDSLRAEDTAVYYCARGGALGVDYYYGMDVWGQGTTVTVSS VL: AIQMTQSPSSLSASVGDRVTLTCRASQGIRNDLGWYQQKPGKAPNFLIYSASSLQSGVPSRFSGSGSGTDFTLTISSLQPEDFATYYCLQNYNYPWTFGQGTKVEIK ... 0.00123
H1H14524P (antibody, human IgG1, V domains shown, human IgG1 (H1H)) VH: QVQLVESGGGVAQPGRSLSLSCAASGFTFSDYGMHWVRQAPGKGLEWVAVIWYAGSNKYYADSVKDRFTISRDNSKNTLYLQMRSLRVEDTAVYYCARGGELRLDYYSGLDVWGQGTTVTVSS VL: DIQMTQSPSSLSASVGDRVTVTCRASQGIRSDLGWYQQKPGKAPKRLIYAASSFQSGVPSRFSGSGSGTEFTLTISSLHPEDFATYYCLQSNNYPWTFGQGTKVEIK ... 0.00147
H4H14476P (antibody, human IgG4, V domains shown, human IgG4 (H4H)) VH: QVQLVESGGGVVQPGRSLRLSCAASGFTFSNYGIHWVRQPPGQGLEWVAVIWYAGSNKFYADSVKGRFTISRDNSKNSAYLQMNSLRAEDTAVYYCARAPLGYYYYGMDVWGQGTTVTVSS VL: DIQMTQSPSSLSASVGDRVTITCRASQGIRNDLGWYQQKPGKAPKRLIYDASSLESGVPSRFSGSGSGTEFTLTISSLQPEDFATYYCLQHNSYPWTFGQGTKVEIK ... 0.0123
H1H14493P (antibody, human IgG1, V domains shown, human IgG1 (H1H)) VH: QVQLVESGGGVVQPGRSLRLSCAASGFNFRSYGMHWVRQAPGKGLEWVAVIWYDGSNKYYADSVKGRFTISRDSSRDTLFLQMNSLRAGDTAVYYCARGGMLGRDYYYGMDVWGQGTTVTVSS VL: DIQMTQSPSSLSASVGDRVTITCRASQGIRNDLGWYQQKPGKAPKRLIYAASSLQSGVPSRFSGSGSGTEFTLTISSLQPEDFATYYCLQHNSYPNTFGQGTKLEIK ... 0.0025
H4H14530P (antibody, human IgG4, V domains shown, human IgG4 (H4H)) VH: QLQLQESGPGLVKPSETLSLTCTVSGGSISSTNHYWGWIRQPPGKGLEWIGNVYYIGNAYYNPSLKTGVTFSVDTSKNQFSLNLRSVTAADTAMYYCARLSNWNFLDLWGQGTLVTVSS VL: EIVMTQSPATLSVSPGERATLSCRASQSISSNLAWYQQKPGQAPRLLIYGASTRATGIPARFSGSGSGTEFTLTISSLQSEDFAVYYCQQFNNWLSFGGGTKVEIK ... 0.00138
H1H14503P (antibody, human IgG1, V domains shown, human IgG1 (H1H)) VH: QVQLVESGGGVVQPGRSLRLSCEASGFTFSNYGFHWVRQAPGKGLDWVAVIWYAGSNKFYVDSVQGRFTISRDNSKQILFLQMNSLRAEDSAVYYCVRGGILGIDYYSGMDVWGQGTTVTVSS VL: AIQMTQSPSSLSASVGDRVTITCRASQDIRNDLGWYQQRPGKAPKFLIYSTSSLQSGVPSRFSGSGSGTDFILTISSLQPEDFATYYCLQSHNYPWTFGHGTKVEIK ... 0.000739
H1H14474P (antibody, human IgG1, V domains shown, human IgG1 (H1H)) VH: QVQLVESGGGVVQPGRSLRLSCAASGFTFSSYGMDWVRQAPGKGLEWVAVIWYPGSNKYYADSVKGRFTVSRDNSKNTLYLQMNSLRAEDTAVYYCARDGELGLDYYSGMDVWGQGTTVTVSS VL: DIQMTQSPSSLSASVGDRVTITCRASQGIRNDLNWYQQKPGKAPKRLINGASSLQSGVPSRFSGSGSGTEFTLTISSLQPEDFATYYCLQLNSYPRTFGQGTKVEIK ... 0.00116
